system: S. pneumoniae strains; assay: MIC against S. pneumoniae strains (Tables M7, M8); assay type: cell-based; conditions: S. pneumoniae 1509
METRIC NAME: MIC S. pneumoniae (1509) (µg/mL)
Report as a plain number; the unit µg/mL is understood.

C=CC[C@@]1(OC)C[C@@H](C)CN[C@H](C)[C@H]2N(CCCCn3cc(-c4cccc(N)c4)nn3)C(=O)O[C@]2(C)[C@@H](CC)OC(=O)[C@H](C)C(=O)[C@@H](C)[C@H]1O[C@@H]1OC(C)CC(N(C)C)C1O (stereo in doubt) ... 8

Next compound, MIC S. pneumoniae (1509) to be filled in.
Ask | Record CC[C@H]1OC(=O)C(C)(F)C(=O)[C@H](C)[C@@H](O[C@@H]2OC(C)CC(N(C)C)C2O)[C@](C)(OC)C[C@@H](C)CN[C@H](C)[C@H]2N(CCCCn3cc(-c4cccc(N)c4)nn3)C(=O)O[C@]12C (stereo partly shown) : what is its MIC S. pneumoniae (1509) with S. pneumoniae strains?
Reply | 1
